- target: Serine/threonine-protein phosphatase PP1-gamma catalytic subunit (Homo sapiens, UniProt P36873)
- Sequence (P36873 whole entry): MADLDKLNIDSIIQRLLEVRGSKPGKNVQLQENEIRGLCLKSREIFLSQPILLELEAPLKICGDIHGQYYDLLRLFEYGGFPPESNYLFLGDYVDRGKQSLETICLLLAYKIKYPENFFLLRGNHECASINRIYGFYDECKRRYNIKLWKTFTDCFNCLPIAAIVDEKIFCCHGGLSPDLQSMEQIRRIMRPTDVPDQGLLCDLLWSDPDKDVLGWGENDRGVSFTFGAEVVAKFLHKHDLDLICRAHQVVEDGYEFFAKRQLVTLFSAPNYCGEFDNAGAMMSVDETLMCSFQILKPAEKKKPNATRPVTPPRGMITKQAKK
- procedure-details: Inhibition of PP1gamma by firefly bioluminescence assay
quantity-name: pKi
# reply with the number alone; pKi is -log10 of concentration in mol/L

[
  {
    "compound-smiles": "CO[C@@H]([C@H](O)CC(=O)[C@@H](C)[C@@H](O)CC[C@@H](C)[C@@H]1O[C@]2(CC[C@@H](C)[C@H](CC[C@H](C)C(C)=O)O2)CC[C@@H]1C)[C@H](OC(=O)C[C@@H](O)/C(C(=O)O)=C(\\C)C(=O)O)C(C)C",
    "observed": 8.35
  }
]

Now consider a different compound.
Consider the compound CO[C@@H]([C@H](O)CC(=O)[C@@H](C)[C@@H](O)CC[C@@H](C)[C@@H]1O[C@]2(CC[C@@H](C)[C@H](CC[C@H](C)/C(C)=N/OCC(=O)Nc3cccc(C(=O)c4ccccc4)c3)O2)CC[C@@H]1C)[C@H](OC(=O)C[C@@H](O)/C(C(=O)O)=C(\C)C(=O)O)C(C)C and give its measured pKi.
8.10

###

- target: Serine/threonine-protein phosphatase PP1-gamma catalytic subunit (Homo sapiens, UniProt P36873)
- procedure-details: Inhibition of PP1gamma by firefly bioluminescence assay
Ki values by entry
Kindly provide the numeric value in nM only, without the unit symbol.

Worked examples follow.
[
  {
    "compound-smiles": "CO[C@@H]([C@H](O)CC(=O)[C@@H](C)[C@@H](O)CC[C@@H](C)[C@@H]1O[C@]2(CC[C@@H](C)[C@H](CC[C@H](C)/C(C)=N\\OCC(=O)NCCSSCCNC(=O)c3ccc(F)c(N=[N+]=[N-])c3)O2)CC[C@@H]1C)[C@H](OC(=O)C[C@@H](O)/C(C(=O)O)=C(\\C)C(=O)O)C(C)C",
    "units": "nM",
    "observed": 23.9
  },
  {
    "compound-smiles": "CO[C@@H]([C@H](O)CC(=O)[C@@H](C)[C@@H](O)CC[C@@H](C)[C@@H]1O[C@]2(CC[C@@H](C)[C@H](CC[C@H](C)/C(C)=N/OCC(=O)NCCCNC(=O)c3ccc(F)c(N=[N+]=[N-])c3)O2)CC[C@@H]1C)[C@H](OC(=O)C[C@@H](O)/C(C(=O)O)=C(\\C)C(=O)O)C(C)C",
    "units": "nM",
    "observed": 3.4
  },
  {
    "compound-smiles": "CO[C@@H]([C@H](O)CC(=O)[C@@H](C)[C@@H](O)CC[C@@H](C)[C@@H]1O[C@]2(CC[C@@H](C)[C@H](CC[C@H](C)/C(C)=N/OCC(=O)NCCNC(=O)c3ccc(F)c(N=[N+]=[N-])c3)O2)CC[C@@H]1C)[C@H](OC(=O)C[C@@H](O)/C(C(=O)O)=C(\\C)C(=O)O)C(C)C",
    "units": "nM",
    "observed": 17.3
  }
]

Consider the compound CO[C@@H]([C@H](O)CC(=O)[C@@H](C)[C@@H](O)CC[C@@H](C)[C@@H]1O[C@]2(CC[C@@H](C)[C@H](CC[C@H](C)/C(C)=N\OCC(=O)Nc3cccc(C(=O)c4ccccc4)c3)O2)CC[C@@H]1C)[C@H](OC(=O)C[C@@H](O)/C(C(=O)O)=C(\C)C(=O)O)C(C)C and give its measured Ki.
32.5

###

- target: Serine/threonine-protein phosphatase PP1-gamma catalytic subunit (Homo sapiens, UniProt P36873)
- procedure-details: Inhibition of PP1gamma by firefly bioluminescence assay
quantity-name: Ki (nM)
Kindly provide the numeric value in nM only, without the unit symbol.

[
  {
    "compound-smiles": "COc1cc(C2(C(F)(F)F)N=N2)ccc1C(=O)NCCNC(=O)CO/N=C(/C)[C@@H](C)CC[C@@H]1O[C@@]2(CC[C@H]1C)CC[C@H](C)[C@H]([C@H](C)CC[C@H](O)[C@H](C)C(=O)C[C@@H](O)[C@H](OC)[C@H](OC(=O)C[C@@H](O)/C(C(=O)O)=C(\\C)C(=O)O)C(C)C)O2",
    "units": "nM",
    "Ki": 49.7
  },
  {
    "compound-smiles": "CO[C@@H]([C@H](O)CC(=O)[C@@H](C)[C@@H](O)CC[C@@H](C)[C@@H]1O[C@]2(CC[C@@H](C)[C@H](CC[C@H](C)/C(C)=N\\OCC(=O)NCCNC(=O)c3ccc(F)c(N=[N+]=[N-])c3)O2)CC[C@@H]1C)[C@H](OC(=O)C[C@@H](O)/C(C(=O)O)=C(\\C)C(=O)O)C(C)C",
    "units": "nM",
    "Ki": 8.4
  },
  {
    "compound-smiles": "CO[C@@H]([C@H](O)CC(=O)[C@@H](C)[C@@H](O)CC[C@@H](C)[C@@H]1O[C@]2(CC[C@@H](C)[C@H](CC[C@H](C)/C(C)=N/OCC(=O)NCCSSCCNC(=O)c3ccc(F)c(N=[N+]=[N-])c3)O2)CC[C@@H]1C)[C@H](OC(=O)C[C@@H](O)/C(C(=O)O)=C(\\C)C(=O)O)C(C)C",
    "units": "nM",
    "Ki": 19.6
  }
]

Now consider a different molecule.
Consider the molecule COc1cc(C2(C(F)(F)F)N=N2)ccc1C(=O)NCCNC(=O)CO/N=C(\C)[C@@H](C)CC[C@@H]1O[C@@]2(CC[C@H]1C)CC[C@H](C)[C@H]([C@H](C)CC[C@H](O)[C@H](C)C(=O)C[C@@H](O)[C@H](OC)[C@H](OC(=O)C[C@@H](O)/C(C(=O)O)=C(\C)C(=O)O)C(C)C)O2 and give its measured Ki.
213
